The following compounds are listed with their measured EC50 values.
# target_or_test_system: sodium channel (ENaC), canine bronchial epithelia (Canis lupus familiaris, UniProt A0A8I3MKE6+A0A8I3Q679+Q95165)
# Construct: endogenous in cells; host or cells: primary canine bronchial epithelial cells cultured at air-liquid interface, mounted in Ussing chambers
# Sequence (A0A8I3Q679 1-649): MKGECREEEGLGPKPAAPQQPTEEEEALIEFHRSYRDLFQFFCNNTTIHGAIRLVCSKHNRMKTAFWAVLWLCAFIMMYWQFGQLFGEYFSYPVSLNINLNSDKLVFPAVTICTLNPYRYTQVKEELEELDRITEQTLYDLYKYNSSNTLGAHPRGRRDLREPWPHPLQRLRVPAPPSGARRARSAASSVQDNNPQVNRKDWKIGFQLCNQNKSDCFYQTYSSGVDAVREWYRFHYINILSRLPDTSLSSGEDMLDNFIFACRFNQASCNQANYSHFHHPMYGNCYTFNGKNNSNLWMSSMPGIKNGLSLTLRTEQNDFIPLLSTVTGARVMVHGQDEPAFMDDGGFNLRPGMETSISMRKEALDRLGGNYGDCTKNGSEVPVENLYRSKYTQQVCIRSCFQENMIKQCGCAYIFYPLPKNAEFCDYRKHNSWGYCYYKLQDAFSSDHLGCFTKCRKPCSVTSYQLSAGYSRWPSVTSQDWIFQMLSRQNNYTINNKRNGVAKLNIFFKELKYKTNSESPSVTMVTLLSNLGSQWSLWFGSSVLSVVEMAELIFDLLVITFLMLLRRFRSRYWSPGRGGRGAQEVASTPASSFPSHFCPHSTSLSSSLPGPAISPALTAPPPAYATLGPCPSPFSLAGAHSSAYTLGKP
# Sequence (Q95165 1-641): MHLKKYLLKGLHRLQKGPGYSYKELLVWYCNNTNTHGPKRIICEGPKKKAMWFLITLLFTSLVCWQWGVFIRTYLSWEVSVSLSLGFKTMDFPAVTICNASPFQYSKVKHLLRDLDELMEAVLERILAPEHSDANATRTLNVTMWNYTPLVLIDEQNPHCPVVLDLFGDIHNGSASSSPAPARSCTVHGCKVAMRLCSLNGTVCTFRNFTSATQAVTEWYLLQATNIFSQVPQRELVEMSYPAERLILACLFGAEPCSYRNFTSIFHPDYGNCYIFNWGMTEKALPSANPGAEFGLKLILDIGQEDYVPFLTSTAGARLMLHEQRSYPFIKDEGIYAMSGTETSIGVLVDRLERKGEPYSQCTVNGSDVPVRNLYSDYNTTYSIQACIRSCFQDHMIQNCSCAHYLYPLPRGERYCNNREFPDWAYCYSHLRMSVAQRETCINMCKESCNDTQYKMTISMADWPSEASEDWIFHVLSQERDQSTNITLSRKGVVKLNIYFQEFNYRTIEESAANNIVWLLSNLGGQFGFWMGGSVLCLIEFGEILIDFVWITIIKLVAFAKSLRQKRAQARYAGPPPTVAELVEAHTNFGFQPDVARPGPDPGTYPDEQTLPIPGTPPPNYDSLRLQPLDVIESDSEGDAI
# Sequence (A0A8I3MKE6 1-646): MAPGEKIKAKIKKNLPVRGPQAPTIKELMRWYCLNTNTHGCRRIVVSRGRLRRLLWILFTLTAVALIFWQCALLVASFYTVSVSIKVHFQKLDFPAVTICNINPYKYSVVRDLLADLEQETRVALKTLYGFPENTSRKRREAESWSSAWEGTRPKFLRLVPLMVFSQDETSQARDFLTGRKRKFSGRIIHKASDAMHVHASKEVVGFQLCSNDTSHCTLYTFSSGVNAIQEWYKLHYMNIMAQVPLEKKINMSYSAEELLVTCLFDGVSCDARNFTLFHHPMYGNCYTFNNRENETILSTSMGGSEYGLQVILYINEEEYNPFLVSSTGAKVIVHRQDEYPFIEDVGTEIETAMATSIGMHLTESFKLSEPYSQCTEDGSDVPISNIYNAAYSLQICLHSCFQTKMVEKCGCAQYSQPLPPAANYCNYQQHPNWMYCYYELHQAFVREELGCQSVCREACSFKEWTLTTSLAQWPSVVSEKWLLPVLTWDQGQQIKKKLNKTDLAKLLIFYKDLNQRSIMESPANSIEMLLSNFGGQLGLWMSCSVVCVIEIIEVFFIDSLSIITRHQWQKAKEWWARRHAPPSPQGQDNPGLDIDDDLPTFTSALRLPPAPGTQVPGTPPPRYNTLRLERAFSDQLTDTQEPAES
# run_description: In vitro measure of sodium channel blocking activity: inhibition of short circuit current (ISC) in airway epithelial monolayers in Ussing chambers
# Format: cell-based
# particulars: mean of N runs
Where a name gives a salt, the structure may show the parent alone.

- compound: "N=C(N)NCCC(=O)Nc1ccc(CCCCNC(=N)NC(=O)c2nc(Cl)c(N)nc2N)cc1 [PSA 14984, dihydrochloride]"
  EC50 [nM]: 3.27
- compound: "N=C(NCCCCc1ccc(NC[C@@H](O)CO)cc1)NC(=O)c1nc(Cl)c(N)nc1N"
  EC50 [nM]: 22.8
- compound: "N=C(NCCCCc1ccc(CCC[C@@H](N)C(=O)O)cc1)NC(=O)c1nc(Cl)c(N)nc1N"
  EC50 [nM]: 17
